Listed here: items and their measured IR/IGF-1R comparison.
- Target Or System: T1, soluble human insulin receptor-immunoglobulin heavy chain chimera (sIR-Fc; Bass et al., 1996) (human, UniProt P06213 28-956, limits assumed)
- T1 construct: extracellular domain; also called soluble IR (Bass construct); not shown: immunoglobulin heavy chain constant domains
- Procedure Text: phage ELISA
# print the numeric value only

Here's what some known entries look like.
[[record]]
binder = "AETSVQVGWIRLQSVWPGEHWNTVDPFYHKLSELLRGSGA [B6L-4-D7-IR]"
recorded_value = 0.3

[[record]]
binder = "QGNVLDFYGWIGRLLAKQGSD [20E2B-3-D12-IGFR]"
recorded_value = 0.1

[[record]]
binder = "GCEVIVEEGDSADPFYHKLSELCQGS [B6Hα-2-D1-IR]"
recorded_value = 0.2


For the next question, use this binder.
# IR/IGF-1R comparison lookup, item RGMKEEVLVGGSTDPFYHKLSELLQGS [B6Hα-3-F11-IR]
0.1
